Provide the recorded IC50 for the entries that follow.
- TARGET_OR_TEST_SYSTEM: human CYP17A1 (Homo sapiens (Human))
- ASSAY_EXPLANATION: Analysis of 17α-hydroxyprogesterone generation by CYP17A1 using HPLC
- CONDITION_SET: CYP17A1 IC50, progesterone 17α-hydroxylation, 50 μM progesterone, purified CYP17A1 with POR 1:4; ± standard error
Answer in µM, number only, no unit symbol.

Lab entry: human CYP17A1 (Homo sapiens (Human)) assay, compound C[C@]12CC[C@H](O)CC1=CC[C@@H]1[C@@H]2CC[C@]2(C)C(n3cnc4ccccc43)=CC[C@@H]12 [galaterone, reference compound] , IC50 = 0.282

The observed IC50 for C[C@]12CC[C@H](O)CC1=C(C#N)C[C@@H]1[C@@H]2CC[C@]2(C)C(c3cccnc3)=CC[C@@H]12 when tested with human CYP17A1 (Homo sapiens (Human)) stands at 0.174

IC50 for human CYP17A1 (Homo sapiens (Human)) with input C[C@]12CC[C@H](O)CC1=C([N+](=O)[O-])C[C@@H]1[C@@H]2CC[C@]2(C)C(c3cccnc3)=CC[C@@H]12 equals 0.183

Lab note: compound C[C@]12CC[C@H](O)CC1C(C#N)=C[C@@H]1[C@@H]2CC[C@]2(C)C(c3cccnc3)=CC[C@@H]12 (stereo partly shown) tested on human CYP17A1 (Homo sapiens (Human)); recorded IC50 was 0.244

IC50 of C[C@]12CC[C@H](O)CC1=C(C(N)=O)C[C@@H]1[C@@H]2CC[C@]2(C)C(c3cccnc3)=CC[C@@H]12 , assay on human CYP17A1 (Homo sapiens (Human)), is 0.12

Summary line: C[C@]12CC[C@H]3[C@@H](C[C@@H]4O[C@@]45C[C@@H](O)CC[C@]35C)[C@@H]1CC=C2c1cccnc1 , human CYP17A1 (Homo sapiens (Human)), reported IC50 = 0.428

// IC50 (human CYP17A1 (Homo sapiens (Human))) for C[C@]12CC[C@H](O)C[C@@H]1/C(=N/O)C[C@@H]1[C@@H]2CC[C@]2(C)C(c3cccnc3)=CC[C@@H]12 = 0.15

###

- TARGET_OR_TEST_SYSTEM: human CYP21A2 (Homo sapiens (Human), UniProt P08686)
- Sequence (P08686 19-495): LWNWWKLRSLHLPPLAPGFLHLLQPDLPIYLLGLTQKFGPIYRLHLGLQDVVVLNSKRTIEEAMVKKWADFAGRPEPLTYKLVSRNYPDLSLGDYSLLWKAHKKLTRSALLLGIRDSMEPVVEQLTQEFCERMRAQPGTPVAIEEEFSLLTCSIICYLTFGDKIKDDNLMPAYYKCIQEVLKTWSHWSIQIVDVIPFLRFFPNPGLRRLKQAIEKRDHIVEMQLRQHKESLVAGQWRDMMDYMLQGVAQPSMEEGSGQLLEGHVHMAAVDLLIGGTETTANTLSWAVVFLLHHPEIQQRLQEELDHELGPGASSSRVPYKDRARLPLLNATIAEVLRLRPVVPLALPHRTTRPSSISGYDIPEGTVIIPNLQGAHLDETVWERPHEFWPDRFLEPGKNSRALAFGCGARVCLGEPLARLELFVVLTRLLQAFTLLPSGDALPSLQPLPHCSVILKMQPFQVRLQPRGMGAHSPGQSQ
- ASSAY_EXPLANATION: Analysis of 21-hydroxyprogesterone generation by CYP21A2 using GC/MS
- Type: biochemical
RECORDED_ENDPOINT: pIC50
pIC50 is a log-scale quantity: -log10 of the concentration expressed in molar.

// pIC50 (human CYP21A2 (Homo sapiens (Human), UniProt P08686)) for C[C@]12CC[C@H](O)CC1=C([N+](=O)[O-])C[C@@H]1[C@@H]2CC[C@]2(C)C(c3cccnc3)=CC[C@@H]12 [Compound 41] = 6.08

The reported human CYP21A2 (Homo sapiens (Human), UniProt P08686) pIC50 of C[C@]12CC[C@H](O)C[C@@H]1/C(=N/O)C[C@@H]1[C@@H]2CC[C@]2(C)C(c3cccnc3)=CC[C@@H]12 [Compound 33] is 4.99

The molecule C[C@]12CC[C@H](O)CC1=C(C(N)=O)C[C@@H]1[C@@H]2CC[C@]2(C)C(c3cccnc3)=CC[C@@H]12 [Compound 42] on human CYP21A2 (Homo sapiens (Human), UniProt P08686): pIC50 was 5.06

###

I'd appreciate it if you could supply pIC50 values for the items below.
- TARGET_OR_TEST_SYSTEM: human CYP17A1 (Homo sapiens (Human), UniProt P05093)
- Sequence (P05093 20-508): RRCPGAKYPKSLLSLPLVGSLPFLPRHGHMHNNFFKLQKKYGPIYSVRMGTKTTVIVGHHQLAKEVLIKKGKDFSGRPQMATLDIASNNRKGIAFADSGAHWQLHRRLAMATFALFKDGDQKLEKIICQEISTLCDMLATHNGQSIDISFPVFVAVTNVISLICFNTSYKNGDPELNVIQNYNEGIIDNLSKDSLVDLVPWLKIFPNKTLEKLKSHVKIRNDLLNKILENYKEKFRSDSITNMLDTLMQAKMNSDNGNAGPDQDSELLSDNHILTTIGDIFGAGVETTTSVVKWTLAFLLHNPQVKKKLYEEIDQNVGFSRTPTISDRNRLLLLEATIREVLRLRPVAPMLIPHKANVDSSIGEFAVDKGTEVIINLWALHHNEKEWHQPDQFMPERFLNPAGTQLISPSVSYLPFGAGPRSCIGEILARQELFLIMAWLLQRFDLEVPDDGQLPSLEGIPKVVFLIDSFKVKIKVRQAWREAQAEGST
- ASSAY_EXPLANATION: Analysis of 17α-hydroxyprogesterone generation by CYP17A1 using HPLC
// pIC50 is dimensionless: -log10 of concentration (M)

Entry C[C@]12CC[C@H](O)C[C@@H]1NC(=O)C[C@@H]1[C@@H]2CC[C@]2(C)C(c3cccnc3)=CC[C@@H]12 ; assay system human CYP17A1 (Homo sapiens (Human), UniProt P05093); pIC50 recorded at 5.27

Test item C[C@]12CC[C@H](O)C[C@@H]1C(=O)C[C@@H]1[C@@H]2CC[C@]2(C)C(c3cccnc3)=CC[C@@H]12 ; human CYP17A1 (Homo sapiens (Human), UniProt P05093); reported pIC50 was 6.68

Fill in: human CYP17A1 (Homo sapiens (Human), UniProt P05093) pIC50 for C[C@]12CC[C@H](O)CC1=CC[C@@H]1[C@@H]2CC[C@]2(C)C(c3cccnc3)=CC[C@@H]12 [abiraterone, 17-(3-Pyridyl)-androst-5,16-dien-3β-ol, reference compound] = 6.89

Per the reported human CYP17A1 (Homo sapiens (Human), UniProt P05093) data, CN[C@H]1C[C@@H]2[C@H](CC[C@]3(C)C(c4cccnc4)=CC[C@@H]23)[C@@]2(C)CC[C@H](O)CC12 (stereo partly shown) has pIC50 of 5.40

pIC50 on human CYP17A1 (Homo sapiens (Human), UniProt P05093) for C[C@]12CC[C@H](O)C[C@@H]1n1nnnc1C[C@@H]1[C@@H]2CC[C@]2(C)C(c3cccnc3)=CC[C@@H]12 is 6.70

// molecule CC(=O)N1CC[C@@H]2[C@H](CC[C@]3(C)C(c4cccnc4)=CC[C@@H]23)[C@@]2(C)CC[C@H](O)C[C@H]12 , assay human CYP17A1 (Homo sapiens (Human), UniProt P05093), pIC50 value: 5.86
